# measured target: T1, exemplary TAT frataxin fusion molecule (HIV-1, UniProt Q16595 1-210)
# T1 construct: in the bridging assays biotinylated and sulfotagged forms were used; also called TAT-FXN fusion molecule; TAT FXN fusion molecule
# T1 sequence: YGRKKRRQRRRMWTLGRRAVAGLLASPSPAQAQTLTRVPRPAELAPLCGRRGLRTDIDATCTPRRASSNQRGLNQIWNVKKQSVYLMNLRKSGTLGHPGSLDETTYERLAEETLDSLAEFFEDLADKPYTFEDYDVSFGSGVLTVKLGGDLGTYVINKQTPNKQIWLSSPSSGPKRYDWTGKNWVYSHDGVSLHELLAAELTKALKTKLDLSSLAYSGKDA
# protocol summary: PK sandwich ELISA in human plasma, antibody as capture, HRP anti-frataxin mAb detection
Consider the following binders; for each one, report its Mean OD at plasma conc. 3.20 ng/mL.
Response body: numeric value in OD, unit text excluded.

The binder identified as antibody 12-10 (antibody, V domains shown, Rabbit monoclonal) VH: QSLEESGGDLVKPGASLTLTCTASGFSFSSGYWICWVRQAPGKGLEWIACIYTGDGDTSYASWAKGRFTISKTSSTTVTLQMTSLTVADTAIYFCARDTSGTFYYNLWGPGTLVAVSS VL: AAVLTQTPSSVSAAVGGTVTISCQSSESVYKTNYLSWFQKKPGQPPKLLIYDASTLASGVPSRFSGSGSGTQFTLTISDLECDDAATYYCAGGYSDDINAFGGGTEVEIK registered its Mean OD at plasma conc. 3.20 ng/mL at 0.242

The binder identified as antibody 12-1 (antibody, V domains shown, Rabbit monoclonal) VH: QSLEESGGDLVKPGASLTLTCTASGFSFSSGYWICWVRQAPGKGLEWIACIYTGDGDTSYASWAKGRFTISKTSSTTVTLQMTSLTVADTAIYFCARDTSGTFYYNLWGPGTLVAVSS VL: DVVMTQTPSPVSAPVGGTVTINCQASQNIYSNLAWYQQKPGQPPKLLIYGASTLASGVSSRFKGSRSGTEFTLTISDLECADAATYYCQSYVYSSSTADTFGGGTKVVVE registered its Mean OD at plasma conc. 3.20 ng/mL at 0.229

The binder identified as antibody 10-9 (antibody, V domains shown, Rabbit monoclonal) VH: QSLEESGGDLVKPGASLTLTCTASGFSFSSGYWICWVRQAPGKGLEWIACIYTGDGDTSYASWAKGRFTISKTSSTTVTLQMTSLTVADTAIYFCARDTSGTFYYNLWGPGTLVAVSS VL: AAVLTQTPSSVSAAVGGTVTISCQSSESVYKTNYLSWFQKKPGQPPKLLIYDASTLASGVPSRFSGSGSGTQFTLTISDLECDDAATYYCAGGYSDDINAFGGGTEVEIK registered its Mean OD at plasma conc. 3.20 ng/mL at 0.229

The binder identified as antibody 10-5 (antibody, V domains shown, Rabbit monoclonal) VH: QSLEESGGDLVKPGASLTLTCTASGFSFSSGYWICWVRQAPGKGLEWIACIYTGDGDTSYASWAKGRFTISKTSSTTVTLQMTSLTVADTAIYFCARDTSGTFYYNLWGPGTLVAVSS VL: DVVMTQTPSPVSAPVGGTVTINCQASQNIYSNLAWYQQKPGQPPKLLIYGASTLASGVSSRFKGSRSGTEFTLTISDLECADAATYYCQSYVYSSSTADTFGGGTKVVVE registered its Mean OD at plasma conc. 3.20 ng/mL at 0.23

The binder identified as antibody 10-1 (antibody, V domains shown, Rabbit monoclonal) VH: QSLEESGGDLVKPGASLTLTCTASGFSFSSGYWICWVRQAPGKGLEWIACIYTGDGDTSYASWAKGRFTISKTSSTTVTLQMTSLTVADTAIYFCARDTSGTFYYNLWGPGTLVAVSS VL: ELVLTQTASSVSAAVGGTVTISCQSSESVYKTNYLSWFQKKPGQPPKLLIYDASTLASGVPSRFSGSGSGTQFTLTISDLECDDAATYYCAGGYSDDINAFGGGTEVVVK registered its Mean OD at plasma conc. 3.20 ng/mL at 0.228

The binder identified as antibody 12-3 (antibody, V domains shown, Rabbit monoclonal) VH: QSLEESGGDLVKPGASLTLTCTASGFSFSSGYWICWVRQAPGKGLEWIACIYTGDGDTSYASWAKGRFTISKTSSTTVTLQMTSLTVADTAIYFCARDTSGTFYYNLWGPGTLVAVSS VL: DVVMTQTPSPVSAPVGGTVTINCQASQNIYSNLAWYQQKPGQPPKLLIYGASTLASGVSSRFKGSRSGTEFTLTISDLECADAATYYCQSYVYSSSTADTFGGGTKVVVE registered its Mean OD at plasma conc. 3.20 ng/mL at 0.22

The binder identified as antibody 10-4 (antibody, V domains shown, Rabbit monoclonal) VH: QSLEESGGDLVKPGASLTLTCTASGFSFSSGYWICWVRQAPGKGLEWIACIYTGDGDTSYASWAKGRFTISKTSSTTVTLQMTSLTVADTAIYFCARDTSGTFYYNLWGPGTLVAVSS VL: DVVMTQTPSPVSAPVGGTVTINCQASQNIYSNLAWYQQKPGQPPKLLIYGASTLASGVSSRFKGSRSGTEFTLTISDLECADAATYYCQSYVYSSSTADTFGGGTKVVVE registered its Mean OD at plasma conc. 3.20 ng/mL at 0.229

Data provenance: patent US20230061973A1
